Target: GABA-B receptor (Rattus norvegicus (Rat), UniProt O88871+Q9Z0U4)
Sequence (Q9Z0U4 17-960): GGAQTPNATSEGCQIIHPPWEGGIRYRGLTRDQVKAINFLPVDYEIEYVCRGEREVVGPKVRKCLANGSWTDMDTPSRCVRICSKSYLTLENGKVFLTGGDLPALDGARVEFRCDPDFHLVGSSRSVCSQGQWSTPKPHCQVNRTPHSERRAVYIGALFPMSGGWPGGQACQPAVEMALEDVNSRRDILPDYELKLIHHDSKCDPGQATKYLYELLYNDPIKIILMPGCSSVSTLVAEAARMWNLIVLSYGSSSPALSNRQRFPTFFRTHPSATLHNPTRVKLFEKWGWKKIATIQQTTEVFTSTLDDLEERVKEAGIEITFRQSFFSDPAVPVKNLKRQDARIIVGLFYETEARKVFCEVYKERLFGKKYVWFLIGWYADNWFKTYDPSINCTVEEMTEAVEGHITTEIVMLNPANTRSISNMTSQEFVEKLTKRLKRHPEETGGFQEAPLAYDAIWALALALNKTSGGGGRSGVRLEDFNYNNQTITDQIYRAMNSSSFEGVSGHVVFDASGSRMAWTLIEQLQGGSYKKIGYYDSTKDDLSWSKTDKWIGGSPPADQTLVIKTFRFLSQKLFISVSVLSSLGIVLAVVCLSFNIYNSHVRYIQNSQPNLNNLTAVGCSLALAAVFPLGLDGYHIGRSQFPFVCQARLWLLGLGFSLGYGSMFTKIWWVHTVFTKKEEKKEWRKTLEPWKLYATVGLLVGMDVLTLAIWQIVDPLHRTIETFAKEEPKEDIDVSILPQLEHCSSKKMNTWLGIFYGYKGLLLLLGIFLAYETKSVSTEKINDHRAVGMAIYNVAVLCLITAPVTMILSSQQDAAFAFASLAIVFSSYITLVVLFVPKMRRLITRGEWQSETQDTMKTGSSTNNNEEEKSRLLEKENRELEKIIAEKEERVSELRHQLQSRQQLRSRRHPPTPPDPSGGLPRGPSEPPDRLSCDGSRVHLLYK
Sequence (O88871 41-940): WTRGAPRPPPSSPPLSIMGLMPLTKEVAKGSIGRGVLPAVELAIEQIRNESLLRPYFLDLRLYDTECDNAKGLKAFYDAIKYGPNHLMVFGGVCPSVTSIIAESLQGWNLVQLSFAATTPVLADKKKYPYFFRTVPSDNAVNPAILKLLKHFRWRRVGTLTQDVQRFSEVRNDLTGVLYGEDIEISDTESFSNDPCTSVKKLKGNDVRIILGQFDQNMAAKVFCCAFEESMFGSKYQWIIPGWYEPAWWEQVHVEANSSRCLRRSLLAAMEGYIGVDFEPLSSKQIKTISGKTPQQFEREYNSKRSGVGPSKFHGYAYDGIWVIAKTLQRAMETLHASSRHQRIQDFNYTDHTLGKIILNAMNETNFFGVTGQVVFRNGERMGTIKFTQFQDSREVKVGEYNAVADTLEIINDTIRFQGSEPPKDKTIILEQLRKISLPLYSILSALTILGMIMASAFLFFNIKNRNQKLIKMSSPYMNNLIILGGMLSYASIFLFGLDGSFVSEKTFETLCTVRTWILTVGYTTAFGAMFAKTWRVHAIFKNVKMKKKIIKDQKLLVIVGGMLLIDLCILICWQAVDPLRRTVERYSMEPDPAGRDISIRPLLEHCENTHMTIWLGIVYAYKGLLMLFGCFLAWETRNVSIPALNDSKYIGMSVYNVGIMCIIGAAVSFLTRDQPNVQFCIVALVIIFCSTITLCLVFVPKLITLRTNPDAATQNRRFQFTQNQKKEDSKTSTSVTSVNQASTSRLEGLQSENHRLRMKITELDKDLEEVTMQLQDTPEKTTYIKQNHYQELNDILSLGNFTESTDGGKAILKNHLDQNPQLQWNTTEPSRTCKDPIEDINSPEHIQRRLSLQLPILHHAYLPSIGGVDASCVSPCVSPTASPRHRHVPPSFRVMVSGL
Assay: [35S]GTPgS Binding Assay (rat brain cortex membranes, native receptor)
Conditions: rat cortical membranes; in the presence of 1 μM GABA (EC25); basal binding 0%, maximal binding (1 mM GABA) 100%
pEC50: −log10 of the molar value.
reported.metric: pEC50

pEC50 in this record for Cc1nn(C(C)c2ccc(Cl)cc2)c(=O)c2c(C)noc12 (centres unmarked) [Example 114] : 5.42

P. CCCc1noc2c(-c3cccc(NC(C)=O)c3)nn(Cc3ccc(Cl)cc3)c(=O)c12 [Example 91]
Q. Cc1noc2c(-c3ccc(F)cc3)nn(Cc3ccc(Cl)c(C(F)(F)F)c3)c(=O)c12 [Example 28]
For the pair P and Q , which entry has the numerically smaller recorded pEC50? Lab log: write the label of the selected item as the result. Q
(Q: 5.46, P: 5.67)

P. Cc1noc2c(-c3ccccc3)nn(Cc3ccc(Cl)cc3)c(=O)c12 [Example 122]
Q. COc1ccc(-c2nn(Cc3ccc(Cl)cc3)c(=O)c3c(C)noc23)c(OC)c1 [Example 87]
Rank P against Q by their pEC50 values and give the higher one. Output the label that corresponds to your choice. Q
(Q: 5.99, P: 5.42)

I. COc1ccc(-c2nn(Cc3ccc(C(F)(F)F)cc3)c(=O)c3c(C)noc23)c(OC)c1 [Example 127]
II. COc1ccccc1-c1nn(Cc2ccc(C(F)(F)F)cc2)c(=O)c2c(C)noc12 [Example 118]
Of I and II , which shows the smaller pEC50 value? API: response body contains the label of the selected item. II
(II: 5.53, I: 5.81)

---

Molecular target: GABA-B receptor (Rattus norvegicus (Rat), UniProt O88871+Q9Z0U4)
Assay: [35S]GTPgS Binding Assay (rat brain cortex membranes, native receptor)
Type: biochemical
Conditions: rat cortical membranes; in the presence of 1 μM GABA (EC25); basal binding 0%, maximal binding (1 mM GABA) 100%
pEC50: −log10 of the molar value.
reported.metric: pEC50

Field pEC50 (entry COc1ccc(NS(C)(=O)=O)cc1-c1nn(C(C)c2ccc(Cl)cc2)c(=O)c2c(C)noc12 (stereo not shown) [Example 55] ) reads 7.10

a. Cc1noc2c(-c3cccc(NS(C)(=O)=O)c3)nn(C(C)c3ccc(Cl)cc3)c(=O)c12 (stereo not shown) [Example 24]
b. COc1ccc(NC(C)=O)cc1-c1nn(C(C)c2ccc(Cl)cc2)c(=O)c2c(C)noc12 (stereo not shown) [Example 39]
Consider entries a and b . Which has the numerically lower pEC50? Could you answer with the label of the item you picked? a

---

Target: GABA-B receptor (Rattus norvegicus (Rat), UniProt O88871+Q9Z0U4)
Experiment: [35S]GTPgS Binding Assay (rat brain cortex membranes, native receptor)
Details: rat cortical membranes; in the presence of 1 μM GABA (EC25); basal binding 0%, maximal binding (1 mM GABA) 100%
reported.metric: EC50 (µM)

P. CCc1noc2c(-c3cc(OC)ccc3OC)nn(Cc3ccc(Cl)cc3)c(=O)c12 [Example 36]
Q. CC(=O)Nc1cccc(-c2nn(Cc3ccc(Cl)cc3)c(=O)c3c(C4CC4)noc23)c1 [Example 51]
Which has the higher EC50, P or Q ? Record your answer as the label of the chosen record. Q
(Q: 1.5 µM, P: 0.895 µM)

a. Cc1noc2c(-c3ccccc3O)nn(C(C)c3ccc(Cl)cc3)c(=O)c12 (stereo not shown) [Example 100]
b. COc1ccccc1-c1nn(Cc2ccc(F)c(C(F)(F)F)c2)c(=O)c2c(C)noc12 [Example 54]
Endpoint returns whichever of a and b has the numerically higher EC50. Write the label of whichever entry you select. b
(b: 1.2 µM, a: 0.667 µM)
